# Test system: 485368-065-R3-J5-PDC spheroids with HUVEC/MSC, viability
# Assay Procedure: Anticancer human tumor 485368-065-R3-J5-PDC patient-derived pancreatic carcinoma cell line growth inhibition [RAS]
# Setup Conditions: second compound 0.000949 µM; first compound 0.0316 µM; active compounds read low
Observed Property: viability, T/C

Any idea what viability, T/C came out for O=C(c1ccc(F)c(F)c1Nc1ccc(I)cc1F)N1CC(O)([C@@H]2CCCCN2)C1 + CCn1c(-c2cccnc2C(C)OC)c2c3cc(ccc31)N1CCOC(CC(NC(=O)C(C(C)C)N(C)C(=O)C3(F)CCN(C(=O)C#CC(C)(C)N(C)C)CC3)C(=O)N3CCCC(N3)C(=O)OCC(C)(C)C2)C1 on 485368-065-R3-J5-PDC spheroids with HUVEC/MSC, viability?
64.1%

====

# Tested on: 485368-065-R3-J5-PDC spheroids with HUVEC/MSC, viability
# Assay Procedure: Anticancer human tumor 485368-065-R3-J5-PDC cell line growth inhibition [RAS];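 also: spheroids exposed to agents for seven days before readout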
# Setup Conditions: second compound 0.0949 µM; first compound 10 µM; active compounds read low
Observed Property: viability, T/C

INSERT INTO results (molecule, observed_value) VALUES
  ('CCC(CC)c1cc(NC2CCC(N)C2)n2nccc2n1 (centres undefined) + CCn1c(-c2cc(N3CCN(C)CC3)cnc2C(C)OC)c2c3cc(ccc31)-c1csc(n1)CC(NC(=O)C1CC1C)C(=O)N1CCCC(N1)C(=O)OCC(C)(C)C2', '6.24%'),
  ('CC1(O)CCCC1n1c(=O)c(C(F)F)cc2cnc(NC3CCN(S(C)(=O)=O)CC3)nc21 (centres undefined) + CCn1c(-c2cc(N3CCN(C)CC3)cnc2C(C)OC)c2c3cc(ccc31)-c1csc(n1)CC(NC(=O)C1CC1C)C(=O)N1CCCC(N1)C(=O)OCC(C)(C)C2', '8.42%'),
  ('CC(Nc1ccc2c(c1)OCCn1cc(N3C(=O)OCC3C(F)F)nc1-2)C(N)=O (centres undefined) + CCn1c(-c2cc(N3CCN(C)CC3)cnc2C(C)OC)c2c3cc(ccc31)-c1csc(n1)CC(NC(=O)C1CC1C)C(=O)N1CCCC(N1)C(=O)OCC(C)(C)C2', '2.97%');

--- query ---
Given the entry Cc1nc(N2CCC3(CC2)COC(C)C3N)c(CO)nc1Sc1ccnc(N)c1Cl (centres undefined) + CCn1c(-c2cccnc2C(C)OC)c2c3cc(ccc31)N1CCOC(CC(NC(=O)C(C(C)C)N(C)C(=O)C3(F)CCN(C(=O)C#CC(C)(C)N(C)C)CC3)C(=O)N3CCCC(N3)C(=O)OCC(C)(C)C2)C1 , report its measured viability, T/C.
74.2%

====

# Tested on: 485368-065-R3-J5-PDC spheroids with HUVEC/MSC, viability
# Assay Procedure: Anticancer human tumor 485368-065-R3-J5-PDC cell line growth inhibition [RAS];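 also: spheroids exposed to agents for seven days before readout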
# Setup Conditions: second compound 1 µM; first compound 0.1 µM; active compounds read low
Observed Property: viability, T/C

Some compounds with known viability, T/C results, for comparison:
INSERT INTO measurements (compound, assay_system, observed_value) VALUES
  ('CC(Nc1ccc2c(c1)OCCn1cc(N3C(=O)OCC3C(F)F)nc1-2)C(N)=O (stereo not given) + C#Cc1c(F)ccc2cc(O)cc(-c3ncc4c(N5CC6CCC(C5)N6)nc(OCC56CCCN5CC(F)C6)nc4c3F)c12', '485368-065-R3-J5-PDC spheroids with HUVEC/MSC, viability', '85.8%'),
  ('CC1(O)CCCC1n1c(=O)c(C(F)F)cc2cnc(NC3CCN(S(C)(=O)=O)CC3)nc21 (stereo not given) + C#Cc1c(F)ccc2cc(O)cc(-c3ncc4c(N5CC6CCC(C5)N6)nc(OCC56CCCN5CC(F)C6)nc4c3F)c12', '485368-065-R3-J5-PDC spheroids with HUVEC/MSC, viability', '63.4%'),
  ('CC(C)NCC(C(=O)N1CCN(c2ncnc3c2C(C)CC3O)CC1)c1ccc(Cl)cc1 (stereo not given) + C#Cc1c(F)ccc2cc(O)cc(-c3ncc4c(N5CC6CCC(C5)N6)nc(OCC56CCCN5CC(F)C6)nc4c3F)c12', '485368-065-R3-J5-PDC spheroids with HUVEC/MSC, viability', '106%'),
  ('C[C@@H](NC(=O)c1ncnc(N)c1Cl)c1ncc(C(=O)Nc2cc(C(F)(F)F)c(Cl)cn2)s1 + C=CC(=O)N1CCN(c2nc(OCC3CCCN3C)nc3c(F)c(-c4nc(N)cc(C)c4C(F)(F)F)c(Cl)cc23)C(C)C1', '485368-065-R3-J5-PDC spheroids with HUVEC/MSC, viability', '111%');

--- query ---
Given the entry CC(C)n1nc(-c2ccc3oc(N)nc3c2)c2c(N)ncnc21 + C=CC(=O)N1CCN(c2nc(OCC3CCCN3C)nc3c(F)c(-c4nc(N)cc(C)c4C(F)(F)F)c(Cl)cc23)C(C)C1 , report its measured viability, T/C.
16.1%

====

# Tested on: 485368-065-R3-J5-PDC spheroids with HUVEC/MSC, viability
# Assay Procedure: Anticancer human tumor 485368-065-R3-J5-PDC cell line growth inhibition [RAS];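 also: spheroids exposed to agents for seven days before readout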
# Setup Conditions: second compound 0.0316 µM; first compound 0.00316 µM; active compounds read low
# From the text: RAS pathway inhibitors in Combinations in Complex Spheroids A high-throughput screen of multi-cell type tumor spheroids was designed to identify active combinations of RAS pathway inhibitors and targeted small molecules. Complex spheroids include a stromal component modeled by human endothelial cells (HUVEC) and fibroblasts modeled by human mesenchymal stem cells (MSCs). […] Compounds. […] If the clinical Cmax for an agent had not been determined, the highest concentration tested was 10 microM. […]
Let's look at some compounds and their measured viability, T/C.
Write the value in % as a bare number.

Some compounds with known viability, T/C results, for comparison:
INSERT INTO results (compound, display_unit, observed_value) VALUES
  ('CCN1CCN(Cc2ccc(Nc3ncc(F)c(-c4cc(F)c5nc(C)n(C(C)C)c5c4)n3)nc2)CC1 + C#Cc1c(F)ccc2cc(O)cc(-c3ncc4c(N5CC6CCC(C5)N6)nc(OCC56CCCN5CC(F)C6)nc4c3F)c12', '%', 101),
  ('CC(C)n1nc(-c2ccc3oc(N)nc3c2)c2c(N)ncnc21 + C=CC(=O)N1CCN(c2nc(OCC3CCCN3C)nc3c(F)c(-c4nc(N)cc(C)c4C(F)(F)F)c(Cl)cc23)C(C)C1', '%', 84.7);

Given the entry CC(C)n1nc(-c2ccc3oc(N)nc3c2)c2c(N)ncnc21 + C#Cc1c(F)ccc2cc(O)cc(-c3ncc4c(N5CC6CCC(C5)N6)nc(OCC56CCCN5CC(F)C6)nc4c3F)c12 , report its measured viability, T/C.
76.4

Another: C=CC(=O)N1CCN(c2nc(OCC3CCCN3C)nc3c(F)c(-c4nc(N)cc(C)c4C(F)(F)F)c(Cl)cc23)C(C)C1 (stereo not given) + C#Cc1c(F)ccc2cc(O)cc(-c3ncc4c(N5CC6CCC(C5)N6)nc(OCC56CCCN5CC(F)C6)nc4c3F)c12
101

Another: C=CC(=O)Nc1cc(Nc2nccc(-c3cn(C)c4ccccc34)n2)c(OC)cc1N(C)CCN(C)C + C=CC(=O)N1CCN(c2nc(OCC3CCCN3C)nc3c(F)c(-c4nc(N)cc(C)c4C(F)(F)F)c(Cl)cc23)C(C)C1
100

====

Let's look at some compounds and their measured viability, T/C.
# Test system: 485368-065-R3-J5-PDC spheroids with HUVEC/MSC, viability
# Assay Procedure: Anticancer human tumor 485368-065-R3-J5-PDC cell line growth inhibition [RAS];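 also: spheroids exposed to agents for seven days before readout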
# Setup Conditions: second compound 0.3 µM; first compound 0.1 µM; active compounds read low
Write the value in % as a bare number.

Some compounds with known viability, T/C results, for comparison:
INSERT INTO results (compound, observed_value) VALUES
  ('NC1c2ccccc2OC12CCN(c1cnc3c(N4CCCc5ncccc54)n[nH]c3n1)CC2 (stereo not drawn) + CCn1c(-c2cc(N3CCN(C)CC3)cnc2C(C)OC)c2c3cc(ccc31)-c1csc(n1)CC(NC(=O)C1CC1C)C(=O)N1CCCC(N1)C(=O)OCC(C)(C)C2', 3.56),
  ('Nc1ccn(C2OC(CO)C(O)C2(F)F)c(=O)n1 (stereo not drawn) + CCn1c(-c2cccnc2C(C)OC)c2c3cc(ccc31)N1CCOC(CC(NC(=O)C(C(C)C)N(C)C(=O)C3(F)CCN(C(=O)C#CC(C)(C)N(C)C)CC3)C(=O)N3CCCC(N3)C(=O)OCC(C)(C)C2)C1', 11),
  ('CC(C)n1nc(-c2ccc3oc(N)nc3c2)c2c(N)ncnc21 + CCn1c(-c2cc(N3CCN(C)CC3)cnc2C(C)OC)c2c3cc(ccc31)-c1csc(n1)CC(NC(=O)C1CC1C)C(=O)N1CCCC(N1)C(=O)OCC(C)(C)C2', 6.19);

Given the entry C[C@@H](NC(=O)c1ncnc(N)c1Cl)c1ncc(C(=O)Nc2cc(C(F)(F)F)c(Cl)cn2)s1 + CCn1c(-c2cccnc2C(C)OC)c2c3cc(ccc31)N1CCOC(CC(NC(=O)C(C(C)C)N(C)C(=O)C3(F)CCN(C(=O)C#CC(C)(C)N(C)C)CC3)C(=O)N3CCCC(N3)C(=O)OCC(C)(C)C2)C1 , report its measured viability, T/C.
118

Another: Nc1ccn(C2OC(CO)C(O)C2(F)F)c(=O)n1 (stereo not drawn) + CCn1c(-c2cc(N3CCN(C)CC3)cnc2C(C)OC)c2c3cc(ccc31)-c1csc(n1)CC(NC(=O)C1CC1C)C(=O)N1CCCC(N1)C(=O)OCC(C)(C)C2
5.52

Hey, just so you know, these numbers are from PubChem BioAssay AID2060902.
